The entries below are paired with their reported Residual activity.
# System: HPPD polypeptides (wild-type SEQ ID NO:1 and mutants)
# Details: in the presence of diketonitrile (DKN), 60 μM inhibitor, high substrate concentration; kapp normalized to kapp without inhibitor

Molecule	Residual activity (%)
14 (protein, mutant HPPD polypeptide) MADLYENPMGLMGFEFIEFASPTPGTLEPIFEIMGFTKVATHRSKNVHLYRQGEINLILNNEPNSIASYFAAEHGPSVCGMAFRVKDSQKAYNRALELGAQPIHIDTGPMELNLPAIKGIGGAPLYLIDRFGEGSSIYDIDFVYLEGVERNPVGAGLKVIDHLTHNVYRGRMVYWANFYEKLFNFREARYFDIKGEYTGLTSKAMSAPDGMIRIPLNEESSKGAGQIEEFLMQFNGEGIQHVAFLTDDLVKTWDALKKIGMRFMTAPPDTYYEMLEGRLPDHGEPVDQLQARGILLDGSSVEGDKRLLLQIFSETLMGPVFFEFIQRKGHDGFGPDSFKVLFESVERDQVRRGVLTAD	91
7 (protein, mutant HPPD polypeptide) MADLYENPMGLMGFEFIEFASPTPGTLEPIFEIMGFTKVATHRSKNVHLYRQGEINLILNNEPNSIASYFAAEHGPSVCGMAFRVKDSQKAYNRALELGAQPIHIDTGPMELNLPAIKGIGGAPLYLIDRFGEGSSIYDIDFVYLEGVERNPVGAGLKVIDHLTHNVYRGRMVYWANFYEKLFNFREARYFDIKGEYTGLTSKAMSAPDGMIRIPLNEESSKGAGQIEEFLMQFNGEGIQHVAFLTDDLVKTWDALKKIGMRFMTAPPDTYYEMLEGRLPDHGEPVDQLQARGILLDGSSVEGDKRLLLQIFSETLMGPVFFEFIQRKGDDGFGPDSFKALFESIERDQVRRGVLTAD	79
21 (protein, mutant HPPD polypeptide) MADLYENPMGLMGFEFIEFASPTPGTLEPIFEIMGFTKVATHRSKNVHLYRQGEINLILNNEPNSIASYFAAEHGPSVCGMAFRVKDSQKAYNRALELGAQPIHIDTGPMELNLPAIKGIGGAPLYLIDRFGEGSSIYDIDFVYLEGVERNPVGAGLKVIDHLTHNVYRGRMVYWANFYEKLFNFREARYFDIKGEYTGLTSKAMSAPDGMIRIPLNEESSKGAGQIEEFLMQFNGEGIQHVAFLTDDLVKTWDALKKIGMRFMTAPPDTYYEMLEGRLPDHGEPVDQLQARGILLDGSSVEGDKRLLLQIFSETLMGPVFFEFIQRKGDDGFGPHSFKALFESIERDQVRRGVLTAD	81
29 (protein, mutant HPPD polypeptide) MADLYENPMGLMGFEFIEFASPTPGTLEPIFEIMGFTKVATHRSKNVHLYRQGEINLILNNEPNSIASYFAAEHGPSVCGMAFRVKDSQKAYNRALELGAQPIHIDTGPMELNLPAIKGIGGAPLYLIDRFGEGSSIYDIDFVYLEGVERNPVGAGLKVIDHLTHNVYRGRMVYWANFYEKLFNFREARYFDIKGEYTGLTSKAMSAPDGMIRIPLNEESSKGAGQIEEFLMQFNGEGIQHVAFLTDDLVKTWDALKKIGMRFMTAPSDSYYEMLEGRLPDHGEPVDQLQARGILLDGSSVEGDKRLLLQIFSETLMGPVFFEFIQRKGDDGFGPHSFKVLFESVERDQVRRGVLTAD	94
